Values compiled from patent US20260355196A1.

Below, each entry is listed with its recorded DC50.
# assay.system: PIP4K2C (Homo sapiens)
# test.method.notes: HiBiT PIP4K2C degradation assay in MOLT-4 cells (endogenous PIP4K2C C-terminally tagged with HiBiT)
# Assay type: cell-based
# Design: untagged in primary human PBMCs and monocyte-derived dendritic cells
# settings: 24 hours incubation, MOLT-4, top concentration 10 micromolar; read-out: HiBIT-degradation MOLT4 PIP4k2C 24 hours DC50

Consider the following illustrative entries.
O=C1CCC(Nc2ccc(N3CCC(N4CC5(CC(OC(=O)N[C@H]6CC[C@H](Nc7ncc(F)c(-c8cccc(-n9ccccc9=O)c8)n7)CC6)C5)C4)CC3)c(F)c2)C(=O)N1 (stereo partly drawn) [Compound 377]	< 500 nM
O=C1CCC(n2c(=O)oc3cc(C4CCN([C@H]5CC[C@H](CNC(=O)[C@H]6CCC[C@@H](Nc7ncc(F)c(-c8cccc(-n9ccccc9=O)c8)n7)C6)CC5)CC4)ccc32)C(=O)N1 (relative stereo) [Compound 349]	< 500 nM

Now let's try a different one.
q: Which DC50 is reported for this molecule? O=C1CCC(n2c(=O)oc3cc(C4CCN(CC5CCN(CC(=O)N[C@H]6CC[C@H](Nc7ncc(Cl)c(-c8cccc(-n9ccccc9=O)c8)n7)CC6)CC5)CC4)ccc32)C(=O)N1 (stereo partly drawn) [Compound 369]
a: < 500 nM

###

Below, each entry is listed with its recorded pIC50.
# assay.system: UniProt Q8TBX8
# Sequence (Q8TBX8 1-421): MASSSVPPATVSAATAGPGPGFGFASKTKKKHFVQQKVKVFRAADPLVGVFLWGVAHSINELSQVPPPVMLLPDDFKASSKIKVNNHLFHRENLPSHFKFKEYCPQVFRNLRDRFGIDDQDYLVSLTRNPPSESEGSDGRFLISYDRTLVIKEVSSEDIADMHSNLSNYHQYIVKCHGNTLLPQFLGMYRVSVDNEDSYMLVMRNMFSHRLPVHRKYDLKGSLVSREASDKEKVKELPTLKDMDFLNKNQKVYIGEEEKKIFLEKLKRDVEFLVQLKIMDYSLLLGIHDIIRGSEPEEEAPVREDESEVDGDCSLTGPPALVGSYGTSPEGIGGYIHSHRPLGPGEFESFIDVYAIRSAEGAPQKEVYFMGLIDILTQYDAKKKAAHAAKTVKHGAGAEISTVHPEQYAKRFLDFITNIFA
# test.method.notes: Enzyme Binding Assay (KINOMEscan): active site-directed competition binding to an immobilized ligand
# settings: 11-point dose response, duplicate, top concentration 5 micromolar; read-out: Pip4k2c Kd: IC50
pIC50: −log10 of the molar value.

Consider the following illustrative entries.
CC(=O)N[C@H]1CC[C@H](Nc2ncc(F)c(-c3ccnc(C(C)(C)O)c3)n2)CC1	> 6.30
NC(=O)[C@H]1CCC[C@@H](Nc2ncc(F)c(-c3cnn(-c4ccc(F)cc4)c3)n2)C1 (relative stereo)	6.00 to 6.30
CC(=O)N1CCC(Nc2ncc(Cl)c(-c3cnn(C4CC4)c3)n2)CC1	> 6.30
CNC(=O)[C@H]1CC[C@H](Nc2ncc(Cl)c(-c3ccc(=O)n(C4CC4)c3)n2)CC1	6.00 to 6.30
CNC(=O)[C@H]1CC[C@@H](Nc2ncc(Cl)c(-c3cccc(-n4ccccc4=O)c3)n2)CC1	> 6.30

q: Which pIC50 is reported for this compound? CC(=O)N[C@H]1CC[C@H](Nc2ncc(F)c(-c3cccc(N4CCOC4=O)c3)n2)CC1
a: > 6.30

q: Which pIC50 is reported for this compound? NC(=O)[C@H]1CC[C@H](Nc2ncc(F)c(-c3cccc(C(=O)N4CC[C@H](O)C4)c3)n2)CC1
a: > 6.30

q: Which pIC50 is reported for this compound? CC(=O)N[C@@H]1CCC[C@@H](Nc2ncc(Cl)c(-c3cccc(-c4ccccc4)c3)n2)C1 (relative stereo)
a: > 6.30

q: Which pIC50 is reported for this compound? CC(C)(O)c1cc(-c2nc(N[C@@H]3CCC[C@H](C(N)=O)C3)ncc2F)ccn1 (relative stereo)
a: > 6.30

q: Which pIC50 is reported for this compound? CNC(=O)[C@H]1CC[C@@H](Nc2ncc(Cl)c(-c3cccc(-c4ccc(F)cc4)n3)n2)CC1
a: > 6.30

q: Which pIC50 is reported for this compound? NC(=O)[C@H]1CC[C@H](Nc2ncc(F)c(-c3cccc(N4CCOCC4)c3)n2)CC1
a: > 6.30
